target: A*6802 (Homo sapiens, UniProt P04439, A269V/D140Y/D185E/E176V/E277Q/E87N/F33Y/G231S/I121R/I166T/I218V/L180W/L300P/L318F/N151K/P208A/P217A/Q86R/R138H/R169H/S129P/T345S/V36M); experiment: biochemical; assay type: binding
No end group written: not given here.
Record form. Attribute: pIC50. Fill in for each entry.
Answer as the number alone; pIC50 is minus log10 of concentration in mol/L.

stdin: Bench note: what pIC50 did GLTVGIMIGVL [Peptide 9013.0343] show?
stdout: 5.58

stdin: Bench note: what pIC50 did TIESTPFNVV [Peptide 9013.0130] show?
stdout: 6.52

stdin: Bench note: what pIC50 did MAFEYALLA [Peptide 1578.09] show?
stdout: 7.54

stdin: Bench note: what pIC50 did TQELFIPNV [Peptide 9013.0059] show?
stdout: 5.31

stdin: Bench note: what pIC50 did ALNTTYLWWV [Peptide 9013.0217] show?
stdout: 5.11

Every entry's value here was drawn from patent US9340577B2.
